Please go through the items and note down their pIC50.
Biological target: UniProtKB P48730
Sequence (P48730 whole entry): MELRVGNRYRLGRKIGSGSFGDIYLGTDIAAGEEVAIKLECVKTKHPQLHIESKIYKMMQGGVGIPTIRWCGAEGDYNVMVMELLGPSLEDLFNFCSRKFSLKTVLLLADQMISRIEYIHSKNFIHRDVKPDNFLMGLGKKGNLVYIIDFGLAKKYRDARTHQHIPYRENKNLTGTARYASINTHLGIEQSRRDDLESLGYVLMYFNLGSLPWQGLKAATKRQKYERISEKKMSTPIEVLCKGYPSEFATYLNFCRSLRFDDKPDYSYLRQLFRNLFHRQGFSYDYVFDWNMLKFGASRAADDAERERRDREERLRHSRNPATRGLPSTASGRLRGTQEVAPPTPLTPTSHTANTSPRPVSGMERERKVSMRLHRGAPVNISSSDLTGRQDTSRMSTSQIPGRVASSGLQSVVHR
Assay: In vitro kinase assay (ATP consumption, Kinase Glo), 'dark' and UV-irradiated 'light' samples
Format: biochemical
Settings: 'dark' (all-trans, thermally adapted) samples, 2 h at 30 °C, 4.8 µM ATP; read-out: 50 % inhibition: dark (absolute IC50)
Numbers only, as −log10 of the molar value.

1) Cc1cc2sc(NC(=O)Cc3cccc(/N=N/c4ccccc4)c3)nc2cc1Cl ... 6.47

Attention now turns to another entry.
Q) Entry under review: Cc1cc2sc(NC(=O)Cn3nc(C)c(/N=N/c4ccccc4)c3C)nc2cc1Cl . Reported pIC50?
A) 4.94
